Attribution: patent US6630488B1

- Target Or Test System: placental αvβ3 (Homo sapiens, UniProt P05106+P06756)
- Construct: purified active GP IIb-IIIa (Calbiochem) or olacental αvβ3 at 0.5 μg/ml; from tissue; host or cells: placenta
- Sequence (P06756 31-889 limits assumed, one chain of several): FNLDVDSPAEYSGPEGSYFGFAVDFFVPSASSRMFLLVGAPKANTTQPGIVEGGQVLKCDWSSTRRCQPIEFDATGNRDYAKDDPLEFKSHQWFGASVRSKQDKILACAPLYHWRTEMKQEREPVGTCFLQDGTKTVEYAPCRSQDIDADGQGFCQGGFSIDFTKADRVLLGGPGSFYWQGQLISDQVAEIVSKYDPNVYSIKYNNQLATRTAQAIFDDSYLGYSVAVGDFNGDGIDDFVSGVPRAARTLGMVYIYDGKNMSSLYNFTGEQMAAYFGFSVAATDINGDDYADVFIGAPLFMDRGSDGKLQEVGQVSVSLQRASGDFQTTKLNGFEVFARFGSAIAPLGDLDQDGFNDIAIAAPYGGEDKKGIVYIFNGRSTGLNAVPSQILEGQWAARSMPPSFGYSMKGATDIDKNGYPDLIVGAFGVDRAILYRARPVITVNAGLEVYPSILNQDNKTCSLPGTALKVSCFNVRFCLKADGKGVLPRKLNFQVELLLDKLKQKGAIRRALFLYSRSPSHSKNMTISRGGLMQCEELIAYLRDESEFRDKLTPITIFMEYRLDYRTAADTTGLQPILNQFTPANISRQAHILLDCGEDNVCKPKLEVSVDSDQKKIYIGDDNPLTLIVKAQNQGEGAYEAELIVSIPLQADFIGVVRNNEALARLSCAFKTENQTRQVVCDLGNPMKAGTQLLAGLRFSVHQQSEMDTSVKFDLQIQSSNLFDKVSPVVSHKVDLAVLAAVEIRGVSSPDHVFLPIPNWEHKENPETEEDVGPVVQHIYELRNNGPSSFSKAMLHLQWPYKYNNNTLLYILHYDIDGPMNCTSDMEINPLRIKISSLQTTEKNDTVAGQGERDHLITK
- Sequence (P06756 891-1048 partner limits assumed, one chain of several): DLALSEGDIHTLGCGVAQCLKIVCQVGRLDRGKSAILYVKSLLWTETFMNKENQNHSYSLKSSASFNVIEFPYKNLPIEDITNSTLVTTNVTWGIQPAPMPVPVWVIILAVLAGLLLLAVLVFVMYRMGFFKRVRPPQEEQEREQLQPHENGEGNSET
- Assay Method Text: Fibrinogen binding to immobilized αvβ3
- Conditions: biotinylated-fibrinogen 10 nM, immobilized placental αvβ3; read-out: IC50 values for the fibrinogen binding assay αvβ3
pIC50: −log10 of the molar value. Structures can show the parent of a compound that is named as a salt.
Assay Readout: pIC50

Here are 3 compounds together with their reported answers.
Using the record for `O=C(NCc1ccc2cc(C(=O)NC[C@H](NS(=O)(=O)c3ccccc3)C(=O)O)cc(=O)n2c1)OCc1ccccc1` , report its pIC50. 6.04

Same question, N=C(N)NCCCOc1ccc2ccc(C(=O)NC[C@H](NS(=O)(=O)c3ccccc3)C(=O)O)c(=O)n2c1 [Compound IV, Hydrochloride] this time 5.06

Same question, N=C(N)SCCNc1ccn2c(=O)c(C(=O)NC(CC(=O)O)c3ccccc3)ccc2c1 (racemic) [Compound XXXVII, Trifluoroacetic Acid Salt] this time 5.09

A: NCCCCCOc1ccc2ccc(C(=O)NC[C@H](NS(=O)(=O)c3ccccc3)C(=O)O)c(=O)n2c1 [Compound I, TFA Salt]
B: NCCCOc1ccn2c(=O)cc(C(=O)NC[C@H](NS(=O)(=O)c3ccccc3)C(=O)O)cc2c1 [Compound XXX, Trifluoroacetic Acid Salt]
Given A and B , report the one with the higher recorded pIC50. The response must carry the label of the picked entry. B

====

- Target Or Test System: GP IIb-IIIa (αIIbβ3) (Homo sapiens, UniProt P05106+P08514)
- Construct: purchased Calbiochem
- Sequence (P08514 32-887 limits assumed): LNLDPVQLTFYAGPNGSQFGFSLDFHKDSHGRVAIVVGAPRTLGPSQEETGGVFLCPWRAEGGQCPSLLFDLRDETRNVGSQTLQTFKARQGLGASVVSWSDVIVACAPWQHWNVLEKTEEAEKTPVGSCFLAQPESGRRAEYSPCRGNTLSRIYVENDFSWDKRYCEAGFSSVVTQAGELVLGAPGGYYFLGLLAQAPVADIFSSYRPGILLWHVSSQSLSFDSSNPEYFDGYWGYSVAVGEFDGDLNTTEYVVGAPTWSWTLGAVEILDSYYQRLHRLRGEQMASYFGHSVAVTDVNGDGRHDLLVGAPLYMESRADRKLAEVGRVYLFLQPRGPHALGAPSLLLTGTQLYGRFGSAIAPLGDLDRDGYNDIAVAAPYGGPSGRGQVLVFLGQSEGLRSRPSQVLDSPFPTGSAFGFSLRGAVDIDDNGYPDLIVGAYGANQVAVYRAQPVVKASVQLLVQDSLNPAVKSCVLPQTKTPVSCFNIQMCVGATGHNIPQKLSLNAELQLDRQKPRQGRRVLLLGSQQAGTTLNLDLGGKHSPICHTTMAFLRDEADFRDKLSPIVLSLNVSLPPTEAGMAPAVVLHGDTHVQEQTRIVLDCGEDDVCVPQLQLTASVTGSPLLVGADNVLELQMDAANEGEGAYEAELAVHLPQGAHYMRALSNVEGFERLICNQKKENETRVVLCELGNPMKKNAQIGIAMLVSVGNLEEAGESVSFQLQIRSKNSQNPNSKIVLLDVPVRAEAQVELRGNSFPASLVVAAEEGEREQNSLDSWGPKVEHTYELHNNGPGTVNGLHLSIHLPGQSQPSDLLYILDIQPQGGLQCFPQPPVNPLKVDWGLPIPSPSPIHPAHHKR
- Sequence (P08514 891-1039 partner limits assumed): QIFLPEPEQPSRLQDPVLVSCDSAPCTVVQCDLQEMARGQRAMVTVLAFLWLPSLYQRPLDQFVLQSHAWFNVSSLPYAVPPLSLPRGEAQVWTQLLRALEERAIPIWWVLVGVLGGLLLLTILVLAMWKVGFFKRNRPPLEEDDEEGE
- Sequence (P05106 27-788): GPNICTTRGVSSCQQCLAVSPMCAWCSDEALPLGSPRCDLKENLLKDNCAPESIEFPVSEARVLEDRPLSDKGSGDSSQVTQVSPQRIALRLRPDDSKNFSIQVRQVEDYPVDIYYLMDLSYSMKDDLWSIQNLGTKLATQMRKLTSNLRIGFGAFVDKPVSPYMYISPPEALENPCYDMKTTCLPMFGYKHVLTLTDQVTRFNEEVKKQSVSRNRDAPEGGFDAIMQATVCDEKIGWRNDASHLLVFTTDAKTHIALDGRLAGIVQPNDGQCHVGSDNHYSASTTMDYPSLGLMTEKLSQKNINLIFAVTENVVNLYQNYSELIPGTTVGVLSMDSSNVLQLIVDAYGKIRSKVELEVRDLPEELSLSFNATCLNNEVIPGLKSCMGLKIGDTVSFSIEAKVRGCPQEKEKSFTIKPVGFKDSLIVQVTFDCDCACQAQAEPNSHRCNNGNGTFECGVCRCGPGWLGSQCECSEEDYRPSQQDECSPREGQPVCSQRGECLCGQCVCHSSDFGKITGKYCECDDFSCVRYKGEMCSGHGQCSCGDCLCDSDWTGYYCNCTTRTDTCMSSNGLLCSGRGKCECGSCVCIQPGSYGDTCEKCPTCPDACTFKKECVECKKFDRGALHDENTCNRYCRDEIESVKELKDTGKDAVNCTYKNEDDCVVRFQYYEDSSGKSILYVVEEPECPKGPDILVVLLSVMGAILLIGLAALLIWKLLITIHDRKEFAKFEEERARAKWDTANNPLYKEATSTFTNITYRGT
- Assay Method Text: Fibrinogen binding to immobilized GP IIb-IIIa (αIIbβ3)
- Conditions: biotinylated-fibrinogen 10 nM, immobilized GP IIb-IIIa; read-out: IC50 values for the fibrinogen binding assay αIIbβ3
Structures can show the parent of a compound that is named as a salt.
Assay Readout: IC50 (nM)

Here are 4 compounds together with their reported answers.
Using the record for O=C(O)CC(NC(=O)c1ccc2ccc(OCCCNC(=O)OCc3ccccc3)cn2c1=O)c1ccccc1 (racemic) , report its IC50. 20000

Same question, O=C(O)CC(NC(=O)c1ccc2cc(NCCSC(=S)Nc3cccnc3)ccn2c1=O)c1ccccc1 (racemic) [Compound XXXVIII, trifluoroacetic acid salt] this time 45

Same question, NCCCOc1ccc2cc(C(=O)O)cc(=O)n2c1 [Compound XIII, Trifluoroacetic Acid Salt] this time 5300

Same question, NCCNc1ccn2c(=O)c(C(=O)NC(CC(=O)O)c3ccccc3)ccc2c1 (racemic) this time 10000

a: N=C(N)NCCCCOc1ccn2c(=O)cc(C(=O)NC[C@H](NS(=O)(=O)c3ccccc3)C(=O)O)cc2c1 [Compound XXXIII, Hydrochloride]
b: N=C(N)NCCCCOc1ccc2cc(C(=O)NC[C@H](NS(=O)(=O)c3ccccc3)C(=O)O)cc(=O)n2c1 [Compound XVIII, Hydrochloride]
In terms of reported IC50, does a or b have the smaller number? The response must carry the label of the picked entry. b

====

- Target Or Test System: GP IIb-IIIa (αIIbβ3) (Homo sapiens, UniProt P05106+P08514)
- Construct: purchased Calbiochem
- Assay Method Text: Fibrinogen binding to immobilized GP IIb-IIIa (αIIbβ3)
- Conditions: biotinylated-fibrinogen 10 nM, immobilized GP IIb-IIIa; read-out: IC50 values for the fibrinogen binding assay αIIbβ3
Where a name gives a salt, the structure may show the parent alone.
Assay Readout: IC50 (nM)

Using the record for NCCCOc1ccc2cc(C(=O)NCCC(=O)O)cc(=O)n2c1 [Compound XVI, Trifluoroacetic Acid Salt] , report its IC50. 1500

Same question, N=C(N)NCCCCCOc1ccc2ccc(C(=O)NC[C@H](NS(=O)(=O)c3ccccc3)C(=O)O)c(=O)n2c1 [Compound II, Hydrochloride] this time 3900

Same question, N=C(N)NCc1ccc2cc(C(=O)NCC(Nc3ncccn3)C(=O)O)cc(=O)n2c1 (racemic) [Compound XLIV, bis-trifluoroacetic acid salt] this time 6000

1: NCCCCOc1ccn2c(=O)cc(C(=O)NC[C@H](NS(=O)(=O)c3ccccc3)C(=O)O)cc2c1 [Compound XXXII, Trifluoroacetic Acid Salt]
2: N=C(N)NCc1ccc2cc(C(=O)NC(CC(=O)O)c3cccnc3)cc(=O)n2c1 (racemic) [Compound XLIII, bis-trifluoroacetic acid salt]
In terms of reported IC50, does 1 or 2 have the smaller number? The response must carry the label of the picked entry. 1
(1: 5.5 nM, 2: 14800 nM)

====

# maps each entry to its pIC50
- Target Or Test System: αvβ3 (Homo sapiens, UniProt P05106+P06756)
- Construct: expressed in transfected cells; host or cells: K562
- Sequence (P06756 31-889 limits assumed, one chain of several): as the sequence (P06756 31-889 limits assumed, one chain of several) above
- Sequence (P06756 891-1048 partner limits assumed, one chain of several): as the sequence (P06756 891-1048 partner limits assumed, one chain of several) above
- Assay Method Text: Cell attachment assay, K562 transfected with αvβ3
- Format: cell-based
- Conditions: Cell attachment IC50, αvβ3, Osteo-Pontin, ligand osteopontin
- Description: The wells of 96-well plates (Immunolon) were coated, by incubation overnight at 4° C., with 5 μg/ml of vitronectin or osteopontin, 10 μg/ml of fibronectin or 10 mg/ml BSA in PBS. […] Cells were lifted with trypsin-EDTA and washed two times with Hank's balanced salt solution (Sigma) supplemented with 1 mM MgCl2. […] The adherent cells were solubilized with 1% triton X-100 and detected using a fluorescence plate reader (Perkin Elmer). […]
Where a name gives a salt, the structure may show the parent alone.
On this scale, pIC50 is minus log10 of a concentration expressed in M (mol/L).

Using the record for N=C(N)NCCOc1ccc2cc(C(=O)NC[C@H](NS(=O)(=O)c3ccccc3)C(=O)O)cc(=O)n2c1 [Compound XX, Hydrochloride] , report its pIC50. 5.64

Now turn to the next molecule.
Using the record for N=C(N)NCCCOc1ccc2cc(C(=O)NC[C@H](NS(=O)(=O)c3ccccc3)C(=O)O)cc(=O)n2c1 [Compound XV, Hydrochloride] , report its pIC50. 6.30

====

- Target Or Test System: placental αvβ3 (Homo sapiens, UniProt P05106+P06756)
- Construct: purified active GP IIb-IIIa (Calbiochem) or olacental αvβ3 at 0.5 μg/ml; from tissue; host or cells: placenta
- Assay Method Text: Fibrinogen binding to immobilized αvβ3
Counter-ions that a name gives are not always drawn.
Assay Readout: pIC50
On this scale, pIC50 is minus log10 of a concentration expressed in M (mol/L).

Under placental αvβ3 (Homo sapiens, UniProt P05106+P06756): pIC50 value of N=C(N)NCCOc1ccc2cc(C(=O)NC[C@H](NS(=O)(=O)c3ccccc3)C(=O)O)cc(=O)n2c1 [Compound XX, Hydrochloride] ? 7.00

Now turn to the next molecule.
Under placental αvβ3 (Homo sapiens, UniProt P05106+P06756): pIC50 value of N=C(N)NCCCOc1ccc2cc(C(=O)NC[C@H](NS(=O)(=O)c3ccccc3)C(=O)O)cc(=O)n2c1 [Compound XV, Hydrochloride] ? 7.82

====

- Assay Method Text: Cell proliferation and cytotoxicity MTT assay, HT29
- Format: cell-based
- Conditions: human, HT29 tumor cells
Where a name gives a salt, the structure may show the parent alone.
Assay Readout: IC50 at 72 h (µM)
A number alone suffices; assume µM.

Using the record for N=C(N)NCC1CCc2cc(C(=O)NCC(NS(=O)(=O)c3ccccc3)C(=O)O)cc(=O)n2C1 (stereo not shown) , report its IC50 at 72 h. 13

Continuing:
Using the record for N=C(N)NCCOc1ccc2cc(C(=O)NC[C@H](NS(=O)(=O)c3ccccc3)C(=O)O)cc(=O)n2c1 [Compound XX, Hydrochloride] , report its IC50 at 72 h. 100

====

- Target Or Test System: αvβ3 (Homo sapiens, UniProt P05106+P06756)
- Construct: expressed in transfected cells; host or cells: K562
- Assay Method Text: Cell attachment assay, K562 transfected with αvβ3
- Type: cell-based
- Conditions: Cell attachment IC50, αvβ3, Vitro-nectin, ligand vitronectin
- Method: The wells of 96-well plates (Immunolon) were coated, by incubation overnight at 4° C., with 5 μg/ml of vitronectin or osteopontin, 10 μg/ml of fibronectin or 10 mg/ml BSA in PBS. […] Cells were lifted with trypsin-EDTA and washed two times with Hank's balanced salt solution (Sigma) supplemented with 1 mM MgCl2. […] The adherent cells were solubilized with 1% triton X-100 and detected using a fluorescence plate reader (Perkin Elmer). […]
Structures can show the parent of a compound that is named as a salt.
Assay Readout: pIC50
On this scale, pIC50 is minus log10 of a concentration expressed in M (mol/L).

Using the record for N=C(N)NCCCOc1ccc2cc(C(=O)NC[C@H](NS(=O)(=O)c3ccccc3)C(=O)O)cc(=O)n2c1 [Compound XV, Hydrochloride] , report its pIC50. 5.60

====

- Target Or Test System: GP IIb-IIIa (αIIbβ3) (Homo sapiens, UniProt P05106+P08514)
- Construct: purchased Calbiochem
- Assay Method Text: Fibrinogen binding to immobilized GP IIb-IIIa (αIIbβ3)
- Conditions: biotinylated-fibrinogen 10 nM, immobilized GP IIb-IIIa; read-out: IC50 values for the fibrinogen binding assay αIIbβ3
pIC50: −log10 of the molar value. Structures can show the parent of a compound that is named as a salt.
Assay Readout: pIC50

Here are 4 compounds together with their reported answers.
Using the record for NCc1ccc2cc(C(=O)NC[C@H](NS(=O)(=O)c3ccccc3)C(=O)O)cc(=O)n2c1 (stereo in doubt) [Compound XXVI, Trifluoroacetic Acid Salt] , report its pIC50. 6.36

Same question, O=C(O)CC(NC(=O)c1ccc2ccc(OCCCNC(=O)NCc3ccccc3)cn2c1=O)c1ccccc1 (racemic) this time 4.54

Same question, N=C(N)NCCCOc1ccc2ccc(C(=O)NC[C@H](NS(=O)(=O)c3ccccc3)C(=O)O)c(=O)n2c1 [Compound IV, Hydrochloride] this time 7.48

Same question, N=C(N)NCc1ccc2cc(C(=O)NC[C@H](NC(=O)OCc3ccccc3)C(=O)O)cc(=O)n2c1 [Compound XLVIII, trifluoroacetic acid salt] this time 5.59

1: N=C(N)NCCCCCOc1ccn2c(=O)cc(C(=O)NC[C@H](NS(=O)(=O)c3ccccc3)C(=O)O)cc2c1 [Compound XXXV, Hydrochloride]
2: O=C(NCc1ccccc1)NCc1ccc2cc(C(=O)NC[C@H](NS(=O)(=O)c3ccccc3)C(=O)O)cc(=O)n2c1
3: NCCCOc1ccc2ccc(C(=O)N[C@H]3CCCC[C@@H]3C(=O)O)c(=O)n2c1.O=C(O)C(F)(F)F (racemic) [Compound V, Trifluoroacetic Acid Salt]
# desc sort on pIC50 across 3 compounds Kindly provide the labels arranged according to the requested ordering. 1, 2, 3
(1: 5.82, 2: 5.31, 3: 4.02)
